Measured protein stability index, listed per entry for reference.
# Tested on: Saccharomyces cerevisiae;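 note: PSI is a weighted mean of sequencing reads over stability bins, variants kept only with over 10 reads, mCherry proximal and sfGFP distal, peptide attached via GGGS linker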
# Experimental Protocol: protein stability index of tFT-peptide fusion (C-terminal peptide) (PSI (0-1 scale)); higher = more stable (slower turnover)
# Condition Notes: genetic background: wild type; temperature: 30 C

# Chain Sequence, protein stability index
records = [
    ("GRVQARGRPGLD", 0.632),
    ("FSLPLSPRGDCP", 0.699),
    ("LLLPSLAPTPTA", 0.654),
    ("HTWALERVCSLD", 0.687),
    ("GKNGKNMDKDNK", 0.676),
    ("LFSSSLISPLFA", 0.582),
    ("PPQGPVAPRKTP", 0.708),
]
